For each record, write down the corresponding growth.
# System: NCI-H522 lung
# ASSAY_METHOD_TEXT: NCI-60 one-dose screen, 48 h (100 = growth as untreated, 0 = no growth, -100 = all killed)
# CONDITIONS_USED: 10 µM unless noted
This is part of a sample that, as a whole, favours compounds with a hit. Of some 83,000 tested, about 20% had one in any assay.
The figure you give is taken to be in %; do not add the unit.

Reported growth, molecule O=S(=O)(NCCNc1nccc(-n2cnc3ccccc32)n1)c1ccc(Cl)cc1 : ____
92.1

Reported growth, molecule O=C(Nc1cccc(C(F)(F)F)c1)c1cc(-c2ccc(F)cc2F)ccc1O : ____
-4.56

Reported growth, molecule CN1CCN(c2ccc(/C=N/n3cnc4oc(-c5ccccc5)cc4c3=N)cc2)CC1 : ____
84.4

Reported growth, molecule COc1ccc([C@H]2c3[nH]c4ccccc4c3C[C@H]3C(=O)N(C4CCN(Cc5c(Cl)cccc5Cl)CC4)CC(=O)N23)c(OC)c1 : ____
87.2

Reported growth, molecule COc1ccc(/C=N/NC(=O)c2cn(C3CC3)c3c(OC)c(N4CC5CCCNC5C4)c(F)cc3c2=O)cc1 (configuration not stated) : ____
102

Reported growth, molecule Nc1nc(N)c2c(n1)NC(c1ccc(Cl)cc1)CC(c1ccc(Nc3nc(NCCO)nc(N4CCOCC4)n3)cc1)=N2 (configuration not stated) : ____
65.8

Reported growth, molecule CCOC(=O)c1c(Nc2ccccc2)nn2c(-c3ccccc3)ccnc12 : ____
87.9

Reported growth, molecule O=C(CN1CCN(c2cc(=O)[nH]c3ccc(F)cc23)CC1)Nc1ccc(Cl)cc1 : ____
13.1

Reported growth, molecule Cc1ccc(C2=NN(C)C(=O)C3(CCCC3)C2)cc1 : ____
103

Reported growth, molecule Cn1ccnc1C(=O)/C=C/C=C/c1ccc(C(=O)Nc2ccc(F)cc2)cc1 : ____
4.66

Reported growth, molecule NC(N)=Nc1ccc(Oc2cccc(Nc3ccc(Cl)cc3)c2)cn1 : ____
-30.1

Reported growth, molecule N#Cc1cnc2ccc(-c3cnc4[nH]ncc4c3)cc2c1N1CCc2cc(F)c(Cl)cc21 : ____
1.37

Reported growth, molecule O=C1[C@@H]2Cc3c([nH]c4ccccc34)[C@H](c3c(Cl)cccc3Cl)N2C(=O)CN1C1CCN(CC2CCCCC2)CC1 : ____
24.1

Reported growth, molecule COc1cc(OC)c(S(N)(=O)=O)cc1C(=O)/C=C/c1ccc(Cl)cc1 : ____
-6.47

Reported growth, molecule CC[C@@H](CO)Nc1ccc2ncc(C#Cc3cncc(C(=O)Nc4ccc(CN5CCN(C)CC5)c(C(F)(F)F)c4)c3)n2n1 : ____
-76.1

Reported growth, molecule Fc1ccc(-c2cc3nc(C(Cl)Cl)nc(-c4ccco4)n3n2)cc1 : ____
89.9

Reported growth, molecule COc1ccc2c(c1)c(CC(=O)[Se]CCC#N)c(C)n2C(=O)c1ccc(Cl)cc1 : ____
-8.61

Reported growth, molecule NC(N)=Nc1ccc(Oc2cccc(NC(N)=Nc3ccc(I)cc3F)c2)cc1 : ____
66.8

Reported growth, molecule COc1ccc(-c2nc3cc(Cl)c(Cl)cc3n2CC(=O)N=Nc2c(O)[nH]c3ccc(OC)cc23)cc1 : ____
69.3

Reported growth, molecule CS(=O)(=O)Nc1cc(-c2ccc3ncc(C#N)c(Nc4cccc(Cl)c4F)c3c2)cnc1Cl : ____
1.54

Reported growth, molecule CN1c2ccccc2Sc2cc(C=C(C#N)C#N)ccc21 : ____
91.8

Reported growth, molecule O=C1Nc2ccccc2/C1=C/c1ccc(CO)n1-c1ccc(Cl)cc1 : ____
53.7

Reported growth, molecule COc1cc(OC)c(/C=C/S(=O)(=O)Cc2ccc(OC)c(NC(=O)CCC(=O)NO)c2)c(OC)c1 : ____
-6.54

Reported growth, molecule NC(N)=Nc1ccc(Nc2cccc(Nc3ccc(Cl)c(C(F)(F)F)c3)c2)cn1 : ____
8.21

Reported growth, molecule C=C(C=O)[C@@H]1CC[C@]2(CO)CC[C@]3(C)[C@H](CC[C@@H]4[C@@]5(C)CCCNC(C)(C)[C@@H]5CC[C@]43C)[C@@H]12 : ____
77.6

Reported growth, molecule COc1ccc(N2CCN(C3=C(Cl)C(=O)C(C)=C(C)C3=O)CC2)cc1 : ____
92.3

Reported growth, molecule COc1ccc(S(=O)(=O)NCCCNc2nccc(-c3[nH]c(-c4ccccc4)nc3-c3ccc(Cl)c(O)c3)n2)cc1 : ____
69.1
